The measured values listed here are drawn from ChEMBL document CHEMBL4373719.

test: Glutathione reactivity in HEPES buffer assessed as GSH-adduct formation at 500 uM measured after 10 to 30 mins by UHPLC-MS analysis
The source made the active and inactive calls. The calls are words filed in the database; no cut-off is given here.
Choose the fitting class; nothing outside Yes for active, No for inactive is accepted.

1) O=C1NN(c2cccc(Cl)c2)C(=O)/C1=C\c1ccc(-c2ccc(C(=O)O)c(Cl)c2)o1	No
2) O=[N+]([O-])c1ccc(Sc2nnc(COc3ccccc3)n2-c2ccccc2)c2ncccc12	No
3) C[S+]([O-])CCCCN=C=S (centres undefined)	Yes

stdin: Per the records of this test, what outcome belongs to CC(C)c1ccc(S(=O)(=O)Nc2cc(Sc3nc[nH]n3)c(O)c3ccccc23)cc1 ?
stdout: Yes

###

target: Kelch-like ECH-associated protein 1 (Homo sapiens, UniProt Q14145); assay: Inhibition of […]-LDEETGEFL-NH2 binding to recombinant human KEAP1 Kelch domain (321 to 609 residues) expressed in Escherichia coli BL21 (DE3) measured after 10 to 15 mins by fluorescence polarization assay
Sequence (Q14145 whole entry, the tested form may be a part): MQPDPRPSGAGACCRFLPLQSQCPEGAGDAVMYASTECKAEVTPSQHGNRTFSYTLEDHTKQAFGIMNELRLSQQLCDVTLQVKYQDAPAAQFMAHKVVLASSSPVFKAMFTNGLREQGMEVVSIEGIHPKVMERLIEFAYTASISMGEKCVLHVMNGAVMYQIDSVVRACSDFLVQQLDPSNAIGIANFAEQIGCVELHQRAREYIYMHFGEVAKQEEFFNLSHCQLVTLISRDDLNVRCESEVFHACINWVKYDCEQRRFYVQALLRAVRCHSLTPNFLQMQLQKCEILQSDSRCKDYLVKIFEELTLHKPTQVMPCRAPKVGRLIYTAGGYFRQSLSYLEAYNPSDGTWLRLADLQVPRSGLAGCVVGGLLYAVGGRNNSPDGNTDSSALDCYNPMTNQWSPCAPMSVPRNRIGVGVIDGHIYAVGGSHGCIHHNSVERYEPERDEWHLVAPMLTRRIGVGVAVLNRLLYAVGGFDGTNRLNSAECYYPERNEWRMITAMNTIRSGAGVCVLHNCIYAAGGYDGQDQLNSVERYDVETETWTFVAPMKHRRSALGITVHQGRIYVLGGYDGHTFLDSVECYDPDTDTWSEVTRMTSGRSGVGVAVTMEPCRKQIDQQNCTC
Listed here: items and their measured Ki.

// known answers, use as guide
1. O=c1c2cc3ccccc3cc2nc2c3ccccc3nc(-c3ccccc3)n12	≤ 99 µM
2. O=C(N/N=C/c1ccc(-c2ccc(C(=O)O)cc2)o1)N/N=C/c1ccc(-c2ccc(C(=O)O)cc2)o1	≤ 49 µM
3. O=C1NN(c2cccc(Cl)c2)C(=O)/C1=C\c1ccc(-c2ccc(C(=O)O)c(Cl)c2)o1	280 µM
4. O=[N+]([O-])c1ccc(Sc2nnc(COc3ccccc3)n2-c2ccccc2)c2ncccc12	≤ 77 µM

Now take the following molecule into account.
stdin: Identify the reported Ki for the following entry. O=C(NCc1ccccn1)Nc1nnc(-c2ccco2)o1
stdout: ≤ 800 µM

###

molecular target: Kelch-like ECH-associated protein 1 (Homo sapiens, UniProt Q14145); assay: Binding affinity to KEAP1 (unknown origin) by surface plasmon resonance analysis
ENDPOINT NAME: Kd

stdin: Report the value of Kd obtained on Kelch-like ECH-associated protein 1 (Homo sapiens, UniProt Q14145) for O=C(O)COc1cccc(CNC(=O)Nc2nnc(-c3ccco3)o2)c1 .
stdout: 100 to 1000 µM

###

biological target: Kelch-like ECH-associated protein 1 (Homo sapiens, UniProt Q14145); experiment: Binding affinity to recombinant human KEAP1 Kelch domain (321 to 609 residues) expressed in Escherichia coli BL21 (DE3) by surface plasmon resonance analysis
ENDPOINT NAME: Kd

Recorded results for 5 molecules are shown here.
1) O=[N+]([O-])c1cccc(-c2cn(-c3cccc(I)c3)nn2)c1	≤ 354 µM
2) O=C(NCc1ccccn1)Nc1nnc(-c2ccco2)o1	≤ 452 µM
3) O=C(O)COc1cccc(CNC(=O)Nc2nnc(-c3ccco3)o2)c1	≤ 582 µM
4) Fc1ccc(-c2nc(-c3ccc4nc[nH]c4c3)no2)cc1	> 120 µM
5) O=C(N/N=C/c1ccc(-c2ccc(C(=O)O)cc2)o1)N/N=C/c1ccc(-c2ccc(C(=O)O)cc2)o1	≤ 14 µM

Please look at the following molecule next.
stdin: Quote Kd reported for Cc1ccccc1NC(=O)CN1C(=O)S/C(=C\c2cccn2-c2cccc(C(=O)O)c2)C1=O please.
stdout: ≤ 286 µM
